system: PC-3 prostate; assay: NCI tumour cell line growth inhibition, 48 h
ENDPOINT: TGI

| COMPOUND | ENDPOINT | ASSAY VALUE |
| --- | --- | --- |
| OC1(c2ccc(Cl)cc2)c2ccccc2C2=Nc3ccccc3CN21 (configuration not stated) | TGI | > 100 µM |
| CC(=O)C1=CC=C/C1=N\Nc1ccccc1 | TGI | 18.7 µM |
| Nc1nc(Cl)nc2c1ncn2C1O[C@H](CO)[C@@H](O)[C@@H]1F (some centres not stated) | TGI | > 100 µM |
| C=C1C(=O)OC2C(C)C3C=CC(=O)[C@@]3(C)C(OC(=O)/C(C)=C/C)C1[C@@H]2OC(C)=O (some centres not stated) | TGI | 1.87 µM |
| Cn1c(=O)c(Cc2ccc(F)cc2F)cc2cnc(NC3CCOCC3)nc21 | TGI | > 25 µM |
| CCOC(=O)c1c(OCC)[nH]c(=O)c(C(c2ccc(F)cc2)c2c(O)c(C(=O)OCC)c(OCC)[nH]c2=O)c1O | TGI | 34.6 µM |
| O=C(Nc1ccccc1Cl)c1ccc(NC2=C(Cl)C(=O)N(Cc3ccccc3)C2=O)cc1 | TGI | > 100 µM |
| CC(C)(C)c1ccc(-c2nnc(SCc3ccc(Cl)cc3)n2-c2cccc(C(F)(F)F)c2)cc1 | TGI | > 100 µM |
| COc1ccc(N(C(=O)OC(C)(C)C)[C@@H]2C(C)=C[C@H]([S@@](=O)c3ccc(C)cc3)[C@@H]3C(=O)N(C)C(=O)[C@@H]32)cc1 | TGI | > 100 µM |
| NC(=O)NC(=O)CI | TGI | 26.8 µM |
| CC(=O)OCc1ccc(-c2nc(C#N)c(N)o2)o1 | TGI | > 10 µM |
| CN1CCN(c2ccc3nc(-c4ccc(OCCCN5C(=O)c6cccc7cccc(c67)C5=O)cc4)[nH]c3c2)CC1 | TGI | 4.95 µM |
| Cc1cc2nc3c(C#N)c(-c4ccccc4)/c(=C\Nc4cccc(C(F)(F)F)c4)c(=O)n3c2cc1C | TGI | > 100 µM |
| CCP(=O)(CC)C(Cl)(Cl)C(=O)NC | TGI | > 100 µM |
| COC(=O)CCCc1ccc2c(c1)CCC2 | TGI | > 100 µM |
| O=C1NC(=NCc2ccccn2)S/C1=C\c1ccc2ncccc2c1 | TGI | > 25 µM |
| CCOC(=O)C(=Cc1ccccc1Br)C(=O)OCC | TGI | 14.9 µM |
| CC(=O)c1nc2ccccc2n1CC(=O)c1ccc([N+](=O)[O-])cc1 | TGI | 44.4 µM |
| Nc1nc(Cl)cc(NCC2(CO)CC(CCCCc3ccccc3)C2)n1 (configuration not stated) | TGI | > 100 µM |
| C=C(C)C1CC2=C(C(=O)OC)C=C(O2)C(C(=C)C)[C@@H]2OC(=O)/C(=C\C1O)[C@H]2N(C)C (some centres not stated) | TGI | 24.5 µM |
| CC1=C(C(=O)Nc2ccc(F)c(Cl)c2)C(c2cccc(Cl)c2)NC(=O)N1 (configuration not stated) | TGI | 46.9 µM |
| CCOC(=O)/C(O)=C(\C=N\C(=S)Nc1ccc(Cl)c(Cl)c1)C(=O)OCC | TGI | > 100 µM |
| CCCNc1nc(-c2ccc(OC)cc2)nc2ccccc12 | TGI | 46.5 µM |
| CC(C)=NN/C(=N\S(=O)(=O)c1cc(Cl)c(Oc2ccc([N+](=O)[O-])cc2Cl)c(Cl)c1)Nc1ccc(Cl)cc1 | TGI | > 100 µM |
| CCCCOC(=O)N[C@H]1CCc2cc(OC)c(OC)c(OC)c2-c2ccc(SC)c(=O)cc21 | TGI | > 81 µM |
| CCCCCCc1cc(C=O)sc1-c1ccc(-c2sc(-c3ccc(-c4ccc(-c5cc(CCCCCC)c(-c6ccc(-c7sc(C=O)cc7CCCCCC)s6)s5)s4)s3)cc2CCCCCC)s1 | TGI | > 100 µM |
| Cc1ccc(Nc2ncnc3sc(SCc4ccccc4)nc23)cc1 | TGI | > 100 µM |

====

system: XF 498 CNS; test: NCI tumour cell line growth inhibition, 48 h
ENDPOINT: TGI

| MOLECULE | ASSAY VALUE |
| --- | --- |
| C[Si](C)(C)/C(Br)=C\CCN1C(=O)CCC1O (stereo not given) | > 100 µM |
| CC(=O)OC1COC(N2C(=O)C(=O)c3cc(Br)c([N+](=O)[O-])cc32)C(OC(C)=O)C1OC(C)=O (stereo not given) | > 100 µM |
| Cc1c2cc[n+](C)cc2c(COC2OC(CO)C(O)C2O)c2c3ccccc3n(C)c12 (stereo not given) | > 97.3 µM |
| Cc1cc2c(=O)cc(-c3ccc(Cl)cc3)oc2c(C(=O)O)c1C | > 100 µM |
| N#CC(C#N)=C1NC(=O)C(c2ccccc2)C(=O)N1 (stereo not given) | > 100 µM |

====

Recorded TGI for the following molecules
system: T-47D breast; assay: NCI tumour cell line growth inhibition, 48 h

| CHEM SMILES | TGI |
| --- | --- |
| COc1ccc2cc(C(=O)NCCc3ccccc3)ccc2c1OC | > 100 µM |
| CCOC(=O)c1cc(-c2ccc(OC)c(OC)c2)cn1C | > 10 µM |
| CC(=O)c1nc2ccccc2n1CC(=O)c1ccc([N+](=O)[O-])cc1 | > 100 µM |

====

// reported TGI for each item listed
system: SR leukemia; test: NCI tumour cell line growth inhibition, 48 h

| COMPOUND | TGI |
| --- | --- |
| CSC(=S)N/N=C(\C)c1ccccn1 | 6.46 µM |
| COc1ccccc1Nc1nc(-c2cc3cccc(C(F)(F)F)c3oc2=O)cs1 | > 100 µM |
| COC(=O)c1c(-c2ccccc2)csc1NC(=O)c1c(-c2ccccc2)noc1C | > 100 µM |
| Cc1[nH]n(C(=O)c2ccccc2O)c(=O)c1/C=C1\C(=O)C=Cc2ccccc21 | > 100 µM |
| Cc1cc(Cl)ccc1N1C(=O)C(=O)C(c2nc3ccccc3s2)C(=O)C1=O | > 100 µM |
| Cc1ccc(Nc2ncnc3sc(SCc4ccccc4)nc23)cc1 | > 100 µM |
| C=C1C(=O)O[C@H]2[C@H]1CC/C(Cn1cc(CCC)nn1)=C\CC[C@@]1(C)O[C@@H]21 | 26.1 µM |
| NC12c3c4cccc3Oc3cccc(c31)Oc1cccc(c12)O4 | > 50 µM |
| CCOC(=O)C1(C(=O)OCC)C[C@H]2CON=C2[C@@H]1c1ccc(C(F)(F)F)cc1 | > 100 µM |
| COc1ccc2cc(C(=O)NCCc3ccccc3)ccc2c1OC | > 100 µM |
| O=C1c2cccc3cccc(c23)C(=O)N1CCCCOc1ccc(-c2nc3ccc(N4CCOCC4)cc3[nH]2)cc1 | > 100 µM |
| O=C1c2cc3c(cc2-c2c1c1ccc([N+](=O)[O-])cc1c(=O)n2CCCCl)OCO3 | 27.8 µM |
| O=Nc1c(-c2cccc([N+](=O)[O-])c2)nc2ncccn12 | 2.22 µM |
| Nc1nc(Cl)cc(NCC2(CO)CC(CCCCc3ccccc3)C2)n1 (stereo unspecified) | > 100 µM |
| COc1ccccc1NC(=S)N/N=C(/c1ccccc1)c1ccccn1 | 1.34 µM |
| CC(=O)OC(C)(C)C1CCC(C)(C(O)COc2ccc(CCNC(=O)c3ccccc3)cc2)O1 (stereo unspecified) | > 100 µM |
| CCOC(=O)Cc1csc(/N=C\c2c(O)c3ccccc3oc2=O)n1 | 52 µM |
| CCCNc1nc(-c2ccc(OC)cc2)nc2ccccc12 | > 100 µM |
| O=[N+]([O-])c1ccccc1S(=O)(=O)N1CCCc2cc(Cl)ccc21 | > 79.8 µM |
| CN1CCN(c2ccc3nc(-c4ccc(OCCCN5C(=O)c6cccc7cccc(c67)C5=O)cc4)[nH]c3c2)CC1 | 5.94 µM |
| COc1ccccc1NC(=O)C1=C(C)NC(C)=C(C(=O)Nc2ccccc2OC)C1c1ccc(C(C)C)cc1 | > 100 µM |
| C[C@H](NC(=O)OC1C2C=CC(O)C1CC2)c1ccccc1 (stereo partly specified) | 46.2 µM |
| CCOC(=O)Nc1ccc(S(=O)(=O)Nc2ccc(Br)cc2)cc1 | 50.4 µM |
| O=C(O)CCCN1CCCCC1 | > 100 µM |
| CCCCCCCCSC1=CC(=O)C(OC)=C(OC)C1=O | > 100 µM |
| c1ccc(COc2nc3ccc(C45CC6CC(CC(C6)C4)C5)cc3[nH]2)cc1 | > 100 µM |

====

test system: SK-OV-3 ovarian; assay: NCI tumour cell line growth inhibition, 48 h
Where a SMILES comes first, the peptide text is derived from it. [ ]: non-standard residue; d: D form. The star is where a group is joined. X28 = COC1=CC(=O)N(C(=O)[C@@H](O*)C(C)C)[C@H]1Cc1ccccc1; NMeL = CN[C@@H](CC(C)C)C(=O)O; Hexanoyl = CCCCCC(=O)*
ENDPOINT: TGI

| MOLECULE | ASSAY VALUE |
| --- | --- |
| Cc1cc(SCC(=O)c2ccc(Br)cc2)cc(C)[o+]1 | > 100 µM |
| NCCOc1ccccn1 | > 100 µM |
| Cc1ccc(S(=O)(=O)N2CCCCC2CCO)cc1 (centres undefined) | > 100 µM |
| COc1ccc2cc(C(=O)NCCc3ccccc3)ccc2c1OC | > 100 µM |
| CCOC(=O)c1ccc(N=C/C=C(\Nc2ccc(C(=O)OCC)cc2)c2ccc3ccccc3c2)cc1 | > 100 µM |
| CCOc1ccc2c(c1)/C(=C\C=C\C1CC(C)C3CC(OCC)CCC3N1CC)CC(C)N2CC (centres undefined) | 1.92 µM |
| CC(=O)c1ccc2c(c1)CC1(C2)Cc2cc3c(cc2C1)C(=O)CC3 (centres undefined) | > 66.1 µM |
| O=Nc1c(-c2cccc([N+](=O)[O-])c2)nc2ncccn12 | 59.6 µM |
| Cc1ccccc1NC(=O)NC(CC(N)=O)c1ccc2c(c1)nc(-c1cccc(Oc3ccc(C(C)(C)C)cc3)c1)n2CCCN1CCCCC1C (centres undefined) | 23.9 µM |
| N=C(/C=C/c1ccc(-c2cn3cc(/C=C/C(=N)N4CCOCC4)ccc3n2)cc1)N1CCOCC1 | > 100 µM |
| NC12c3c4cccc3Oc3cccc(c31)Oc1cccc(c12)O4 | > 50 µM |
| C=C(C)C1CC2=C(C(=O)OC)C=C(O2)C(C(=C)C)[C@@H]2OC(=O)/C(=C\C1O)[C@H]2N(C)C (some centres undefined) | 64.1 µM |
| CCOC(=O)C1(C(=O)OCC)C[C@H]2CON=C2[C@@H]1c1ccc(C(F)(F)F)cc1 | > 100 µM |
| COC(=O)CP1(=O)OC2C(C3CCC2(C)C3(C)C)N1c1cc(C(F)(F)F)cc(C(F)(F)F)c1 (centres undefined) | 80.5 µM |
| CCCCCC(=O)N[C@H](C(=O)N[C@H](C(=O)N(C)[C@@H](CC(C)C)C(=O)N1CCC[C@H]1C(=O)N1CCC[C@H]1C(=O)O[C@H](C(=O)N1C(=O)C=C(OC)[C@@H]1Cc1ccccc1)C(C)C)C(C)C)C(C)C (Hexanoyl-VV[NMeL]PP-X28) | > 100 µM |
| O=C(OCCOCCOC(=O)c1c[nH]cc1-c1ccccc1)c1c[nH]cc1-c1ccccc1 | 84.4 µM |
| N#CC(C(=O)c1ccccc1F)c1nc2cc(C(F)(F)F)ccc2s1 (centres undefined) | > 100 µM |
| O=C1c2cccc3cccc(c23)C(=O)N1CCCCOc1ccc(-c2nc3ccc(N4CCOCC4)cc3[nH]2)cc1 | > 54 µM |
| COc1cc(-c2ccc(-c3ccc(C(=N)N)s3)s2)cc(OC)c1OC | 18.8 µM |
| O=[N+]([O-])c1ccc2[nH]cc(-c3c4ccccc4cc4[nH]c5ccc([N+](=O)[O-])cc5c34)c2c1 | 10.8 µM |
| Cc1ccccc1NC(=O)c1[nH]c(=S)nc(N)c1-c1ccccc1C | > 100 µM |
| Cc1c2cc[n+](C)cc2c(C)c2c1[nH]c1ccc(O)cc12 | > 100 µM |
| COc1ccc(/C=C(/C(=O)N2CCNCC2)c2cc(OC)c(OC)c(OC)c2)cc1O | > 100 µM |
| CCCCN(CCCC)CC(=O)c1ccc2cc(Cl)c3ccccc3c2c1 | > 100 µM |
